assay: Plasma clearance in rat at 4 mg/kg, po; format: ADME, organism-based; set-up: dose 4 mg/kg, route oral
metricName: CL/F (mL/min/kg)

smilesstr=CC[C@H](NC(C)=O)c1cc(Cl)ccc1C1CCN(C(=O)[C@H]2CN(C(C)(C)C)C[C@@H]2c2ccc(Cl)cc2Cl)CC1 valuemeasured=11.4
smilesstr=CC[C@H](NC(C)=O)c1cc(Cl)ccc1C1CCN(C(=O)[C@@H]2CN(C(C)(C)C)C[C@H]2c2ccc(Br)cc2F)CC1 valuemeasured=7.3
smilesstr=CC[C@H](NC(C)=O)c1cc(Cl)ccc1C1CCN(C(=O)[C@@H]2CN(C(C)(C)C)C[C@H]2c2ccc(OC)cc2F)CC1 valuemeasured=66.4
smilesstr=CC[C@H](NC(C)=O)c1cc(Cl)ccc1C1CCN(C(=O)[C@@H]2CN(C(C)(C)C)C[C@H]2c2ccc(Cl)cc2F)CC1 valuemeasured=11.4
smilesstr=CC[C@H](NC(C)=O)c1cc(Cl)ccc1C1CCN(C(=O)[C@@H]2CN(C(C)(C)C)C[C@H]2c2ccc3ccccc3c2)CC1 valuemeasured=37.6
smilesstr=CC[C@H](NC(C)=O)c1cc(Cl)ccc1C1CCN(C(=O)[C@H]2CN(C(C)(C)C)C[C@@H]2c2ccc(Br)cc2F)CC1 valuemeasured=9.12
smilesstr=CC[C@H](NC(C)=O)c1cc(Cl)ccc1C1CCN(C(=O)[C@H]2CN(C(C)(C)C)C[C@@H]2c2ccc(C(F)(F)F)cc2)CC1 valuemeasured=5.6
